Values from paper PMC7335187

# Assay Target: GABARAP WT (human GABARAP 1-116) (human, UniProt O95166 1-116)
# Sequence (O95166 1-116): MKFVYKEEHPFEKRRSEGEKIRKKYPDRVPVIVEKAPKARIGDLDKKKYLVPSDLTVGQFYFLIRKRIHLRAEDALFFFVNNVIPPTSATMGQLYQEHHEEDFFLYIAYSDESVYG
# Assay: ITC
Kd under 3000 nM gets Satisfied, anything at or over 3000 nM gets Not satisfied.

{"Binder": "GPEEDTDTEEGDDFALLDQSALDQIESELY [FAM134B444-470 E456A E462A peptide]", "Label Class": "Not satisfied"}
{"Binder": "GPHSSGNGNDFEMITKEELEQQTDY [SEC62355-376 WT peptide]", "Label Class": "Satisfied"}
{"Binder": "GPEEDTDTEEGDDFELLDQSELDQIESELY [FAM134B444-470 WT peptide]", "Label Class": "Satisfied"}
{"Binder": "NDFEMITKY [SEC62361-368 (Δhelix) peptide]", "Label Class": "Not satisfied"}
{"Binder": "DDFELLDQY [FAM134B453-460 (Δhelix) peptide]", "Label Class": "Satisfied"}
